experimental-details: an = ratio of the nth substance listed
applied-conditions: 333 K; 100 kPa; Liquid; Falling or rolling sphere viscometry; a2 = 2
property: viscosity (mPa·s)

Past entries and their recorded results:
| molecule | readout-value |
| --- | --- |
| CCCCCCCC[N+](C)(CCCCCCCC)CCCCCCCC.[Br-] [methyltrioctylammonium bromide] + CCCCCCCCCC(=O)O | 83.7 |
| C[N+](C)(C)CCO.[Cl-] [choline chloride] + OCC(O)CO | 53.8 |

I: CCCCCCCC[N+](CCCCCCCC)(CCCCCCCC)CCCCCCCC.[Br-] [tetraoctylammonium bromide] + CCCCCCCCCC(=O)O
II: C[N+](C)(C)CCO.[Cl-] [choline chloride] + OCCO
Exercise: Compare the recorded viscosity of I and II ; state which is larger. In your reply, give the label of the chosen option.
Key: I

---

experimental-details: an = ratio of the nth substance listed
applied-conditions: 328 K; 100 kPa; Liquid; Falling or rolling sphere viscometry; a2 = 2
property: viscosity (mPa·s)

Worked set:
| molecule | readout-value |
| --- | --- |
| CCCCCCCC[N+](CCCCCCCC)(CCCCCCCC)CCCCCCCC.[Br-] [tetraoctylammonium bromide] + CCCCCCCCCC(=O)O | 123.4 |
| C[N+](C)(C)CCO.[Cl-] [choline chloride] + OCCO | 14.6 |

A: CCCCCCCC[N+](C)(CCCCCCCC)CCCCCCCC.[Br-] [methyltrioctylammonium bromide] + CCCCCCCCCC(=O)O
B: C[N+](C)(C)CCO.[Cl-] [choline chloride] + OCC(O)CO
Exercise: Choose between A and B : whose measured viscosity value is numerically larger? Reply with the label of the item you choose.
Key: A

---

experimental-details: an = ratio of the nth substance listed
applied-conditions: 293 K; 100 kPa; Liquid; Falling or rolling sphere viscometry; a2 = 2
property: viscosity (mPa·s)

| molecule | property | readout-value |
| --- | --- | --- |
| CCCCCCCC[N+](CCCCCCCC)(CCCCCCCC)CCCCCCCC.[Br-] [tetraoctylammonium bromide] + CCCCCCCCCC(=O)O | viscosity | 908.9 |

A: CCCCCCCC[N+](C)(CCCCCCCC)CCCCCCCC.[Br-] [methyltrioctylammonium bromide] + CCCCCCCCCC(=O)O
B: C[N+](C)(C)CCO.[Cl-] [choline chloride] + OCC(O)CO
C: C[N+](C)(C)CCO.[Cl-] [choline chloride] + OCCO
Exercise: Kindly order the items shown according to viscosity, from the highest value down. In your reply, arrange the labels in the requested order.
Key: A, B, C

---

experimental-details: an = ratio of the nth substance listed
applied-conditions: 318 K; 100 kPa; Liquid; Frequency=5 MHz; Single path-length method; a2 = 2
property: speed of sound (m/s)

| compound | unit-string | speed of sound |
| --- | --- | --- |
| CCCCCCCC[N+](CCCCCCCC)(CCCCCCCC)CCCCCCCC.[Br-] [tetraoctylammonium bromide] + CCCCCCCCCC(=O)O | m/s | 1331 |
| C[N+](C)(C)CCO.[Cl-] [choline chloride] + OCC(O)CO | m/s | 1932 |
| CCCCCCCC[N+](C)(CCCCCCCC)CCCCCCCC.[Br-] [methyltrioctylammonium bromide] + CCCCCCCCCC(=O)O | m/s | 1326 |
| C[N+](C)(C)CCO.[Cl-] [choline chloride] + OCCO | m/s | 1837 |
